- Experiment: chemical genetic growth profiling, strain panel (AID 1159580);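 also: tested at 20 µM; growth read once vehicle control cultures reached saturation at 30 °C; lower values mean less growth of the strain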
- Setup Conditions: S. cerevisiae deletion strains, growth OD, locus YIL066C, strain RNR3
In all, about 5,500 compounds went through this assay and about 2,000 (36%) were called active. Another 18% or so got no clear call; they are omitted. Rule as the data show it: active = normalized growth mostly below about 0.91 (no sharp cut-off); inconclusive = no clear call, values can overlap the other calls; inactive = mostly above about 0.92. The list shows a part of the results.
Please state which outcome applies, choosing from true (active), false (inactive)

INPUT: Please share the test call associated with `Cc1cc(C2CCCCC2)n(O)c(=O)c1` .
OUTPUT: true

INPUT: Please share the test call associated with `CC/C(=C(/CC)c1ccc(O)cc1)c1ccc(O)cc1` .
OUTPUT: false

INPUT: Please share the test call associated with CC(C)N(CCC(C(N)=O)(c1ccccc1)c1ccccn1)C(C)C (stereo not given) .
OUTPUT: false

INPUT: Please share the test call associated with CC12CCC3c4ccc(OC(=O)c5ccccc5)cc4CCC3C1CCC2O (stereo not given) .
OUTPUT: false

INPUT: Please share the test call associated with CC(C1OC(C)(C)C(O)C1O)[C@@H]1CC[C@]2(C)C3=CCC4C(C)(C)C(=O)CC[C@]4(C)C3CC[C@@]12C (stereo not given in full) .
OUTPUT: false

INPUT: Please share the test call associated with `CCOCN(C(=O)CCl)c1c(C)cccc1CC` .
OUTPUT: false

INPUT: Please share the test call associated with `CNC(=O)Oc1cccc2c1OC(C)(C)O2` .
OUTPUT: false

INPUT: Please share the test call associated with CC(=O)OC(C)C[N+](C)(C)C (stereo not given) .
OUTPUT: false

INPUT: Please share the test call associated with `COC(=O)c1c(C)cc(OC)cc1O` .
OUTPUT: false

INPUT: Please share the test call associated with COc1ccc2c(c1C(C)C)CCC1C(C)(C)C(=O)CCC21C (stereo not given) .
OUTPUT: false

INPUT: Please share the test call associated with `CC(C)[N+](C)(CCC(C(N)=O)(c1ccccc1)c1ccccc1)C(C)C` .
OUTPUT: false

INPUT: Please share the test call associated with CCCC(C)(COC(N)=O)COC(=O)NC(C)C (stereo not given) .
OUTPUT: false

INPUT: Please share the test call associated with NC(=O)NCC(N)C(=O)O (stereo not given) .
OUTPUT: false

INPUT: Please share the test call associated with C[N+](C)(C)CC(O)CC(=O)O (stereo not given) .
OUTPUT: false

INPUT: Please share the test call associated with CC(C)(C)NCC(O)c1cc(Cl)c(N)c(Cl)c1 (stereo not given) .
OUTPUT: false

INPUT: Please share the test call associated with CC(=O)[C@@]1(O)CCC2C3C[C@H](C)C4=CC(=O)C=CC4(C)[C@@]3(F)[C@@H](O)C[C@@]21C (stereo not given in full) .
OUTPUT: false

INPUT: Please share the test call associated with CCCCCCCCCCCCCCCCCC(=O)OC(CC(=O)O)C[N+](C)(C)C (stereo not given) .
OUTPUT: true

INPUT: Please share the test call associated with O=C(Cc1cccs1)NC1C(=O)N2C(C(=O)[O-])=C(C[n+]3ccccc3)CSC12 (stereo not given) .
OUTPUT: false

INPUT: Please share the test call associated with `CCOC(=O)c1c(C)cc(OC)cc1O` .
OUTPUT: false

INPUT: Please share the test call associated with `O=C(O)C1=C[C@@H](O)[C@@H](O)[C@H](O)C1` .
OUTPUT: false

INPUT: Please share the test call associated with `Cc1cc(OC(=O)c2c(C)cc(OC(=O)c3c(C)cc(O)cc3O)cc2O)cc(O)c1C(=O)O` .
OUTPUT: false

INPUT: Please share the test call associated with Oc1ccc2c(c1)OCC1(O)Cc3cc(O)c(O)cc3C21 (stereo not given) .
OUTPUT: false

INPUT: Please share the test call associated with O=C1C=C2C(=CCOC2O)O1 (stereo not given) .
OUTPUT: true

INPUT: Please share the test call associated with `CCc1cc(C(N)=S)ccn1` .
OUTPUT: false

INPUT: Please share the test call associated with NC(=O)NCCCC(N)C(=O)O (stereo not given) .
OUTPUT: false
